- Target or test system: OBP3 (Acyrthosiphon pisum)
- Construct: construct not detailed here
- Sequence (A0A8R1XHB4 24-141 limits assumed): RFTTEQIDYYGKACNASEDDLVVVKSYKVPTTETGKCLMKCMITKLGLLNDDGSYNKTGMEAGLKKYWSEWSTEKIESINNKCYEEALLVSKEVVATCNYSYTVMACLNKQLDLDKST
- Cond: binder
Measured quantity: Kd

Ask | Request: Kd, test system OBP3 (Acyrthosiphon pisum), entry CC(C)CCOC(=O)CCCc1ccccc1 [LIG-8]
Reply | 10.7 µM

---

- Target or test system: OBP6 (Acyrthosiphon pisum, UniProt A0A8R1TDN2)
- Sequence (A0A8R1TDN2 1-160): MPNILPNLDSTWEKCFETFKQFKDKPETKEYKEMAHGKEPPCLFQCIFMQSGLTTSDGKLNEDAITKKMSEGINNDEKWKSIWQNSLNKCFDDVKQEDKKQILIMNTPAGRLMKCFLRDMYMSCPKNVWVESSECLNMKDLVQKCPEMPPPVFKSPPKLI
- Protocol summary: biochemical
- Cond: read-out: [IC]50 OBP6
Measured quantity: pIC50
Note on units: pIC50 is unitless, being -log10 of a concentration expressed in mol/L.

Ask | Checklist item: pIC50 tested on OBP6 (Acyrthosiphon pisum, UniProt A0A8R1TDN2), entry CC(C)CCCC(C)CCOC(=O)c1ccccc1 (stereo not shown) , value?
Reply | 4.79

---

In this section we review reported Kd values for a set of compounds.
- Target or test system: OBP7 (Acyrthosiphon pisum)
- Construct: primers encode N-terminus (M)YLSEA, C-terminus EFLPL
- Protocol summary: biochemical
Give the quantity in µM, number only.

INSERT INTO results (compound_structure, reading) VALUES
  ('CC(=O)OC/C=C(\C)CCC=C(C)C', 9.3);

Shift focus to the following entry.
Ask | Please give the measured Kd for this compound: `CC(C)CCOC(=O)CCCc1ccccc1`
Reply | 2.8

---

- Target or test system: OBP6 (Acyrthosiphon pisum, UniProt A0A8R1TDN2)
- Protocol summary: biochemical
Measured quantity: Kd (µM)
Your answer is read as µM, so omit the unit and give the number.

Ask | What value of Kd has been recorded for this entry: CC(C)CCCC(C)CCOC(=O)c1ccccc1 (stereo not shown)
Reply | 13.9

---

- Target or test system: OBP7 (Acyrthosiphon pisum, UniProt A0A8R1TDD0)
- Construct: primers encode N-terminus (M)YLSEA, C-terminus EFLPL
- Sequence (A0A8R1TDD0 31-155): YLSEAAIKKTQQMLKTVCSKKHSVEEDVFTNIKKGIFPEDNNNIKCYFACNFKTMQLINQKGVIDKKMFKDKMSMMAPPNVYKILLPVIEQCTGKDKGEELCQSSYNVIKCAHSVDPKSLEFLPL
- Protocol summary: biochemical
- Cond: read-out: [IC]50 OBP7
Quick reference for pIC50 among some compounds
API: returns pIC50 as number; meaning -log10 of concentration in mol/L.

These solved cases illustrate the format of a correct answer.
INSERT INTO assay_data (compound, target_or_test_system, measured_quantity, reading) VALUES
  ('CC(=O)OC/C=C(\C)CCC=C(C)C', 'OBP7 (Acyrthosiphon pisum, UniProt A0A8R1TDD0)', 'pIC50', 4.74),
  ('CC(C)CCCC(C)CCOC(=O)c1ccccc1 (stereo not drawn)', 'OBP7 (Acyrthosiphon pisum, UniProt A0A8R1TDD0)', 'pIC50', 5.60);

Consider the record given below.
Ask | Fill in the blank: the reported pIC50 of `CC(C)CCOC(=O)CCCc1ccccc1` is ____.
Reply | 5.26

---

- Target or test system: OBP3 (Acyrthosiphon pisum)
- Construct: construct not detailed here
- Cond: binder; read-out: [IC]50 OBP3
Measured quantity: IC50 (µM)
# unit: µM | format: bare number

Ask | Given `CC(C)CCOC(=O)CCCc1ccccc1` , state its recorded IC50.
Reply | 14
